Reference for the values: ChEMBL document CHEMBL1143223

- target: UniProt:Q64663
- Sequence (Q64663 whole entry): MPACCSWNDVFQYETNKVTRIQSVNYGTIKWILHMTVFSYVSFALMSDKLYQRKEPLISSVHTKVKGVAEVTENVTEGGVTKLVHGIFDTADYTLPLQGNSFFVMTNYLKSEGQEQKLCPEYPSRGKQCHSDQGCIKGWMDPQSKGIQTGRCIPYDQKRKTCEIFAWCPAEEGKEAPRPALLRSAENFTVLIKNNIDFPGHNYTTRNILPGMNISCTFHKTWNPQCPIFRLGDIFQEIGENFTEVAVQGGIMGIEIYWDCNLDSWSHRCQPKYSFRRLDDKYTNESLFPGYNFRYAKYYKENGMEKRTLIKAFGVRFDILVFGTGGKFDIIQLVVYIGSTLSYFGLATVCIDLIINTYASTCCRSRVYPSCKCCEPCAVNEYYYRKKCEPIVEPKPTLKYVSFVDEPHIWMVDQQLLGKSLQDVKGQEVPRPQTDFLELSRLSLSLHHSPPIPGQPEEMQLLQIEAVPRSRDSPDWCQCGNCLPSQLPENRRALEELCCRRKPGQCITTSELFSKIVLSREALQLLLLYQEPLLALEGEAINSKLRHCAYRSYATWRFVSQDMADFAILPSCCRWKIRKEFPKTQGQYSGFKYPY
- assay.overview: Antagonist activity at rat recombinant P2X7 receptor assessed as inhibition of BzATP-induced calcium flux by FLIPR assay
pIC50: −log10 of the molar value.
Class (by pIC50) -- low value: < 6; medium value: ≥ 6 and < 7; high value: ≥ 7

Look over these answered cases.
- compound.structure.string: "Cc1ccccc1Nc1ncnn1-c1cccc(Cl)c1Cl"
  answer.label: "medium value"
- compound.structure.string: "Clc1cccc(-n2cnnc2NCc2cccnc2N2CCCC2)c1Cl"
  answer.label: "high value"
- compound.structure.string: "CCOc1ccccc1CNc1ncnn1-c1cccc(Cl)c1Cl"
  answer.label: "medium value"
- compound.structure.string: "Clc1cccc(-n2cnnc2NCc2cccnc2-c2ccsc2)c1Cl"
  answer.label: "high value"
- compound.structure.string: "Cc1ncccc1CNc1ncnn1-c1cccc(Cl)c1Cl"
  answer.label: "medium value"

[ask] Just checking, what class would you give `Cc1cccc(CNc2ncnn2-c2cccc(Cl)c2Cl)c1C` here?
[reply] medium value

[ask] Entry `Clc1cccc(-n2ncnc2NCc2ccccc2)c1Cl` belongs to which category?
[reply] medium value

[ask] Classify this compound: `Clc1cccc(-n2ncnc2NCc2cccnc2N2CCOCC2)c1Cl`
[reply] medium value

[ask] Tag the class for `CCOc1ccccc1Nc1ncnn1-c1cccc(Cl)c1Cl`
[reply] low value

[ask] Classify this compound: `Clc1cccc(-c2nnnn2Cc2cccnc2)c1Cl`
[reply] medium value

---

Give IC50 for every item shown.
- target: P2X purinoceptor 7 (Homo sapiens, UniProt Q99572)
- Sequence (Q99572 whole entry): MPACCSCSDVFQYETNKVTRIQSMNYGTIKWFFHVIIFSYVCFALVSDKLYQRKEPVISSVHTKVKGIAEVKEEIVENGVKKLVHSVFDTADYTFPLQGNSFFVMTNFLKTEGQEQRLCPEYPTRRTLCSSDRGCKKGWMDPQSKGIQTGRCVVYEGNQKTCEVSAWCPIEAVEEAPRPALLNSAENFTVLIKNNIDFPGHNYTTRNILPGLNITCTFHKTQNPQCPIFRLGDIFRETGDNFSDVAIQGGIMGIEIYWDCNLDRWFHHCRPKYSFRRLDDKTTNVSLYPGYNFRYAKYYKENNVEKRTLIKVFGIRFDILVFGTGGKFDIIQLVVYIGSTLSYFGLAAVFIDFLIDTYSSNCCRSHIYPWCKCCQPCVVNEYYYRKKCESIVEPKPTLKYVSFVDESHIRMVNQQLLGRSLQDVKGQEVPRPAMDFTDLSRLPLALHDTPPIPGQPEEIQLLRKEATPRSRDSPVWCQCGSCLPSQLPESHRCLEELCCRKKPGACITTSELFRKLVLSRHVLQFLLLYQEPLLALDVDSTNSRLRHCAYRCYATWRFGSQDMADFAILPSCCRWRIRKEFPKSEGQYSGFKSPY
- assay.overview: Antagonist activity at human recombinant P2X7 receptor assessed as inhibition of BzATP-induced calcium flux by FLIPR assay
Give bare numbers, in µM.

Before answering, review these 3 worked examples.
- compound.structure.string: "COc1cccc(CNc2ncnn2-c2cccc(Cl)c2Cl)c1OC"
  unit.label: "µM"
  reported: 0.0309
- compound.structure.string: "Cc1cccc(CNc2ncnn2-c2cccc(Cl)c2Cl)c1"
  unit.label: "µM"
  reported: 0.155
- compound.structure.string: "COc1ccc(CNc2ncnn2-c2cccc(Cl)c2Cl)cc1"
  unit.label: "µM"
  reported: 1.62

I need IC50 for every entry listed below, if you could help.
1. COc1ccccc1Nc1ncnn1-c1cccc(Cl)c1Cl
2. Clc1cccc(-n2cnnc2NCc2cccnc2Oc2cccnc2)c1Cl
3. Clc1cccc(-n2ncnc2NCc2cccnc2N2CCC2)c1Cl

[reply]
1. 0.102
2. 0.0309
3. 0.00912
